target: Tyrosine-protein kinase BTK (Homo sapiens, UniProt Q06187); assay: Inhibition of human recombinant full length N-terminal His tagged BTK expressed in baculovirus infected Sf9 cells using poly (Glu,Tyr) 4:1 as substrate measured after 60 mins in presence of ATP by ADP-Glo kinase assay
Sequence (Q06187 whole entry): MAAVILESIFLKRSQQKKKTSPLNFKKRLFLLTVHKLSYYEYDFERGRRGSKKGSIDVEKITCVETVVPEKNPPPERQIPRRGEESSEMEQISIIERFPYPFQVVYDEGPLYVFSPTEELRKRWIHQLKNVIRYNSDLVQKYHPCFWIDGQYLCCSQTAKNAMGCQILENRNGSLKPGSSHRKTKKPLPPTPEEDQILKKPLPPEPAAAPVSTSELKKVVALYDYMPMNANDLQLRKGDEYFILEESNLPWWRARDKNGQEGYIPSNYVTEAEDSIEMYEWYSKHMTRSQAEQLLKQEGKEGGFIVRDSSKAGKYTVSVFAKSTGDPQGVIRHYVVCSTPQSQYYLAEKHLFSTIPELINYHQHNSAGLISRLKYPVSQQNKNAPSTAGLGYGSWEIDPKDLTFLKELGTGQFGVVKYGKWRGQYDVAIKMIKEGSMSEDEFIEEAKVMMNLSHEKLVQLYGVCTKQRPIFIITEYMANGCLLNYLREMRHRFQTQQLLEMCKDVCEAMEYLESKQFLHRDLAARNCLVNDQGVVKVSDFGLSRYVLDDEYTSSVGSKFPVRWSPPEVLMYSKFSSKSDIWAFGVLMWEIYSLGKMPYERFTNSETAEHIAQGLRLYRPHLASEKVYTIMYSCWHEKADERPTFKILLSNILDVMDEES
Measure: IC50 (µM)

Sample records with IC50:
smiles_str=CCOC(=O)c1sc(-c2cccc(NC(=O)c3ccccc3F)c2)nc1Nc1ccc(N2CCN(C)CC2)cc1 experimental_target="Tyrosine-protein kinase BTK (Homo sapiens, UniProt Q06187)" value_measured=2.1
smiles_str=CC(C)(C)c1ccc(C(=O)Nc2cccc(-c3nc(Nc4ccc(N5CCOCC5)cc4)c(C(=O)O)s3)c2)cc1 experimental_target="Tyrosine-protein kinase BTK (Homo sapiens, UniProt Q06187)" value_measured=5.32
smiles_str=CCOC(=O)c1sc(-c2cccc(NC(=O)c3ccc(N(C)C)cc3)c2)nc1Nc1ccc(N2CCOCC2)cc1 experimental_target="Tyrosine-protein kinase BTK (Homo sapiens, UniProt Q06187)" value_measured=4.2
smiles_str=CN1CCN(c2ccc(Nc3nc(-c4cccc(NC(=O)c5ccc(F)c(Cl)c5)c4)sc3C(N)=O)cc2)CC1 experimental_target="Tyrosine-protein kinase BTK (Homo sapiens, UniProt Q06187)" value_measured=0.09

I = CC(C)NC(=O)c1sc(-c2cccc(NC(=O)c3ccc(C(C)(C)C)cc3)c2)nc1Nc1ccc(N2CCOCC2)cc1
II = CN1CCN(c2ccc(Nc3nc(-c4cccc(NC(=O)c5ccc(C(C)(C)C)cc5)c4)sc3C(N)=O)cc2)CC1
III = CN1CCN(c2ccc(Nc3nc(-c4cccc(NC(=O)[C@H]5CC[C@H](C)CC5)c4)sc3C(N)=O)cc2)CC1
Q: Sort by IC50, descending. Give your ranking as a list of the labels in the requested order.
A: I, II, III
